target: MAPKAP-K3(h) (Homo sapiens, UniProt Q16644); construct: purchased Millipore; assay: Kinase Profiling Assay; type: biochemical; settings: peptide 100 μM
Sequence (Q16644 whole entry): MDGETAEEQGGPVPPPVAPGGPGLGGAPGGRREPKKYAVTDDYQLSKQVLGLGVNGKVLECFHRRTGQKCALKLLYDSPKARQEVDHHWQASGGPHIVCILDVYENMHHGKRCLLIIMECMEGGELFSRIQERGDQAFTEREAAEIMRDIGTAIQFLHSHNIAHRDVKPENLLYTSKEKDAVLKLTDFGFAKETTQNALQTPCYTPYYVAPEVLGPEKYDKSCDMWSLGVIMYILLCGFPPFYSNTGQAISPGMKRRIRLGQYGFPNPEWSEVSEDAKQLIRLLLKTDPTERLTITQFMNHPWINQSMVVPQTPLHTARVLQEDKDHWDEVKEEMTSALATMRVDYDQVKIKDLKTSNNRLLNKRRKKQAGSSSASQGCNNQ
No end group written: not given here.
RECORDED_METRIC: % activity (%)
Record the value in %, omitting the unit from your answer.

Illustrative cases are given below, each with its answer.
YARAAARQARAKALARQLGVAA [MMI-0100] : 27
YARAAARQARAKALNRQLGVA (Mammal) [MMI-0200] : 39
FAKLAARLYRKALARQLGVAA [MMI-0300] : 3
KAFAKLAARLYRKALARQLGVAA [MMI-0400] : 7

Consider the sequence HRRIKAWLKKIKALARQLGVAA (Mammal) [MMI-0500] tested on MAPKAP-K3(h) (Homo sapiens, UniProt Q16644); state its % activity.
9

###

molecular target: SRPK2(h) (Homo sapiens, UniProt P78362); construct: purchased Millipore; assay: Kinase Profiling Assay; format: biochemical; conditions: peptide 100 μM
Sequence (P78362 whole entry): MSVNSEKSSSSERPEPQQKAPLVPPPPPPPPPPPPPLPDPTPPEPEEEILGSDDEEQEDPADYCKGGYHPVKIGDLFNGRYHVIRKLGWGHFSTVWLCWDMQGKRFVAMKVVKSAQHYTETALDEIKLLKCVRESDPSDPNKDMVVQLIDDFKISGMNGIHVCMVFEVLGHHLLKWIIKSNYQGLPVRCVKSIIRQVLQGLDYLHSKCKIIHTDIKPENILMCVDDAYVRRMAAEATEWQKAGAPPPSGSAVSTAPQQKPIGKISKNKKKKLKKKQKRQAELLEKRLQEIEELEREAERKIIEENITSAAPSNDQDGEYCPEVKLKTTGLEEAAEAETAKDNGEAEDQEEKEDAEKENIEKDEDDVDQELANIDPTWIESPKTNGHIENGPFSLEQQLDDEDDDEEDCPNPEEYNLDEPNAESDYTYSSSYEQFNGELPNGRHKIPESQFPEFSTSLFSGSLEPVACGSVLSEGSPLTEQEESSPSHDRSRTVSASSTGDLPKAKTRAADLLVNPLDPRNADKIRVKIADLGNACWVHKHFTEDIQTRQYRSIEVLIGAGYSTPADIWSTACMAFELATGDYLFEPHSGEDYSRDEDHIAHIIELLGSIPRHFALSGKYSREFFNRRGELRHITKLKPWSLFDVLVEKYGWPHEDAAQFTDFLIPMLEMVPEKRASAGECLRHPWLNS
No end group written: not given here.
% activity overview
Record the value in %, omitting the unit from your answer.

Illustrative cases are given below, each with its answer.
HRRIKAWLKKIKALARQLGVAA (Mammal) [MMI-0500] : 80
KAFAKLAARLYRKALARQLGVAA [MMI-0400] : 97
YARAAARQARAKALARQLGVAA [MMI-0100] : 92

State its % activity for this sequence: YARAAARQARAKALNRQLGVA (Mammal) [MMI-0200]
100

###

biological target: Flt4(h) (Homo sapiens); test: Kinase Profiling Assay; type: biochemical; conditions: peptide 100 μM
Sequence (P35916 25-1363): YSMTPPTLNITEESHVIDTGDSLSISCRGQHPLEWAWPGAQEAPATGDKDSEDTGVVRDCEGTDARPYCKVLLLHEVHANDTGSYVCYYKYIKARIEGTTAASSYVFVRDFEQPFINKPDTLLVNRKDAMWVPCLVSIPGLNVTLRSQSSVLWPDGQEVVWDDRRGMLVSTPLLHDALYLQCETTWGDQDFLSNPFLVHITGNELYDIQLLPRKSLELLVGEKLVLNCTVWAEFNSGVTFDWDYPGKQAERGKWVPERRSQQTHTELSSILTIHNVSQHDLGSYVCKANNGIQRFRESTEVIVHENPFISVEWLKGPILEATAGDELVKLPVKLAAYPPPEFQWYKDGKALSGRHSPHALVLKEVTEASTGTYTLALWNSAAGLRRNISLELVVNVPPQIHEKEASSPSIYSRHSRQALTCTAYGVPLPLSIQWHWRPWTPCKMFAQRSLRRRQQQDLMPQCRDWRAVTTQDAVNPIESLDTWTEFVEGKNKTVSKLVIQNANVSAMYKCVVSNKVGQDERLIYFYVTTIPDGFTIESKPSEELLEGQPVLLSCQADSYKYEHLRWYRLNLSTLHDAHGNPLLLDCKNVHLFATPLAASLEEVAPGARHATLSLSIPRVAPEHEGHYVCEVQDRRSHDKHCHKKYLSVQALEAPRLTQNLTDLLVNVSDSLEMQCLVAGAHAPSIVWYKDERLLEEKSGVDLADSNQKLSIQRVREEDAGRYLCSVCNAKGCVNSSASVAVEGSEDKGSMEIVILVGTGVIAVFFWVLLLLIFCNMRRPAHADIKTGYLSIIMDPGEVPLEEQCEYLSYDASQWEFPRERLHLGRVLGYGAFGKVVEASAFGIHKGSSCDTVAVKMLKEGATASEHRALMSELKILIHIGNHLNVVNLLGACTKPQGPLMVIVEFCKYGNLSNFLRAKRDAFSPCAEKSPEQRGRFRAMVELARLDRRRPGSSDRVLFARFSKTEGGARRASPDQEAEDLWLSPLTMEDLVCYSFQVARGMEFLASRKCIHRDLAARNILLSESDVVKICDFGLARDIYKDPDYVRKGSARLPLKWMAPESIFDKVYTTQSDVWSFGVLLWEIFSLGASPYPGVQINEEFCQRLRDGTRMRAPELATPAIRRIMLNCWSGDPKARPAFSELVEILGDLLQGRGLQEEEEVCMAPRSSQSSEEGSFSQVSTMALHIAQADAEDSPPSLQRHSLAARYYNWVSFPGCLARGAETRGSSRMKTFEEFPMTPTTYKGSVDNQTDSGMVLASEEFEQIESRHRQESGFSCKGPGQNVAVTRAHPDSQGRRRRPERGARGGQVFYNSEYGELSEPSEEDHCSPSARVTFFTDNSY
No end group written: not given here.
RECORDED_METRIC: % activity (%)
Record the value in %, omitting the unit from your answer.

Illustrative cases are given below, each with its answer.
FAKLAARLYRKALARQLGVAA [MMI-0300] : 83
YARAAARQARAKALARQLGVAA [MMI-0100] : 135
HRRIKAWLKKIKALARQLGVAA (Mammal) [MMI-0500] : 73

Now for the sequence whose % activity we want.
State its % activity for this sequence: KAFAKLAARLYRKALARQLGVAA [MMI-0400]
89

###

target: Fyn(h) (Homo sapiens); assay: Kinase Profiling Assay; type: biochemical; settings: peptide 100 μM
Sequence (P06241 whole entry): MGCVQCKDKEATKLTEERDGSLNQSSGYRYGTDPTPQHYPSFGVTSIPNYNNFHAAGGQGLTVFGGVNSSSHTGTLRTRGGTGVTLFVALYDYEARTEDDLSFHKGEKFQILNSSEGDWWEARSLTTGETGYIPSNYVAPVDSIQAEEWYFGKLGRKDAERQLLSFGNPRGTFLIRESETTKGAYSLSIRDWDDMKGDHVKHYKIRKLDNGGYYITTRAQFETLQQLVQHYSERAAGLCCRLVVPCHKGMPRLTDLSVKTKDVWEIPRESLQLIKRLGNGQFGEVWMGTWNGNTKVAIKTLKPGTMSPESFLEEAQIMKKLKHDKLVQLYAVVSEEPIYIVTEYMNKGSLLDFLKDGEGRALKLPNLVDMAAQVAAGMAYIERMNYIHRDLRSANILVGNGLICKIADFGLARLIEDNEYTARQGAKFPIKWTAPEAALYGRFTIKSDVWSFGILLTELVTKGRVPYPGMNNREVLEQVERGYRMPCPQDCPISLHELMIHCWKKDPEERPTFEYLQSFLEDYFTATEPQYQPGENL
% activity overview
Remember to follow the number with its unit.

Illustrative cases are given below, each with its answer.
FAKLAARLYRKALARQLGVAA [MMI-0300] : 74%
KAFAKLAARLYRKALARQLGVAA [MMI-0400] : 54%
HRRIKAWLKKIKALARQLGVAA (Mammal) [MMI-0500] : 83%

State its % activity for this sequence: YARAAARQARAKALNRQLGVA (Mammal) [MMI-0200]
75%

###

target: Met(h) (Homo sapiens); construct: purchased Millipore; assay: Kinase Profiling Assay; type: biochemical; conditions: peptide 100 μM
Sequence (P08581 25-1390): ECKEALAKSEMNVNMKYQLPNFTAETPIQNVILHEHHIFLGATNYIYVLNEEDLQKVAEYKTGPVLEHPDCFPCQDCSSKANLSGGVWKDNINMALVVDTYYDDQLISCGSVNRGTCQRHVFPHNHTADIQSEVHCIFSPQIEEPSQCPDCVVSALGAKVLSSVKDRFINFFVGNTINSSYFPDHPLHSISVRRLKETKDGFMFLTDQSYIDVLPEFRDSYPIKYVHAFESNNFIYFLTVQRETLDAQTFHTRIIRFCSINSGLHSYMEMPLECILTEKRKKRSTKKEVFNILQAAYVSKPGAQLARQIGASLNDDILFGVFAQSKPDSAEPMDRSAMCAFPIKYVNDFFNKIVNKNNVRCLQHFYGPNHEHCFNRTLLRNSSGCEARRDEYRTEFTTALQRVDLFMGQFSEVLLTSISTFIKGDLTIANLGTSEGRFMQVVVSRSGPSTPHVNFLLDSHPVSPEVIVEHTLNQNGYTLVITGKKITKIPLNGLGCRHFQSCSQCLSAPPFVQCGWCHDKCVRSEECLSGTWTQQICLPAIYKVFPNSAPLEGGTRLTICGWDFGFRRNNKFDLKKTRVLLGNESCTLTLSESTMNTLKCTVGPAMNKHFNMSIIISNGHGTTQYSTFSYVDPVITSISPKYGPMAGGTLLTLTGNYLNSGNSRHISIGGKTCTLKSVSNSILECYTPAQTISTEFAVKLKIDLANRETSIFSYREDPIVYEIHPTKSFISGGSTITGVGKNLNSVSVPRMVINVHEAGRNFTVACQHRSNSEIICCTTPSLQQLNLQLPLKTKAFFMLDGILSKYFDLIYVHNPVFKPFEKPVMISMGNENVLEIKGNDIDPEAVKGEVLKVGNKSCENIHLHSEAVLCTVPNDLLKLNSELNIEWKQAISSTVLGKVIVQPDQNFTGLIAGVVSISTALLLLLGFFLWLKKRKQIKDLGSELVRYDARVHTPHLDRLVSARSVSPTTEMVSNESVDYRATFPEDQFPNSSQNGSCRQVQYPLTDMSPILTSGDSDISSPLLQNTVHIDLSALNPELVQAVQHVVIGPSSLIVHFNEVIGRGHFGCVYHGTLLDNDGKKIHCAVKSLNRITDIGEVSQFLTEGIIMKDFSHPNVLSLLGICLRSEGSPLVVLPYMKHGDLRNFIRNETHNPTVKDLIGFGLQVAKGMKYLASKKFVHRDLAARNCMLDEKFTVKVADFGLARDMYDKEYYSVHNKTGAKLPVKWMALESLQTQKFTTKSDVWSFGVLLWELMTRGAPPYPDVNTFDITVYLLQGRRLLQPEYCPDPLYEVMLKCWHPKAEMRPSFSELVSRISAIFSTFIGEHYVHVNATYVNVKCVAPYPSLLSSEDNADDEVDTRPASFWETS
% activity overview
Remember to follow the number with its unit.

Illustrative cases are given below, each with its answer.
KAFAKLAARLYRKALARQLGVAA [MMI-0400] : 62%
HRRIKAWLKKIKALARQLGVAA (Mammal) [MMI-0500] : 27%
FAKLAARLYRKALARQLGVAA [MMI-0300] : 65%

Now for the sequence whose % activity we want.
Consider the sequence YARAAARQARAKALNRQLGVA (Mammal) [MMI-0200] tested on Met(h) (Homo sapiens); state its % activity.
71%
